This listing pairs compounds with measured Emax.
Test system: AP-1 induced transcriptional activity
Assay: Cellular Transrepressional Assay: AP-1 luciferase reporter in PMA-activated A549 cells
Type: cell-based
Details: Homo sapiens, A549, 7 h, maximum inhibition, Cellular Transrepression Assay; read-out: AP-1 Max % inh (Cellular Transrepression Assay)
Please reply with the bare figure in % and do not write the unit itself.

Worked cases, Emax given:
compound | Emax / %
COc1cccc(C(c2ccccc2)C(C)(C)C(=O)Nc2nccs2)c1 (centres unmarked) | 23.2
CC(C)(C(=O)Nc1nncs1)C(c1ccccc1)c1ccc(N2CCCCC2)cc1 (centres unmarked) | 38.5
CCOC(=O)/C(=N/OC)c1csc(NC(=O)C(C)(C)C(c2ccccc2)c2ccccc2)n1 | 20.1
CCOC(=O)c1sc(NC(=O)C(C)(C)C(c2ccc(O)cc2)c2ccc(O)cc2)nc1C | 25.4

Ask: Consider the compound shown here: COc1ccc([C@@H](c2ccccc2)C(C)(C)C(=O)Nc2nc(Cc3ccc(-c4ccncc4)cc3)cs2)cc1 (stereo in doubt) What is its recorded Emax?
Result: 72.6

Ask: Consider the compound shown here: COc1cccc(C(c2ccccc2)C(C)(C)C(=O)Nc2nc3ccccc3s2)c1 (centres unmarked) What is its recorded Emax?
Result: 26.9

Ask: Consider the compound shown here: CC(C)(C(=O)Nc1nncs1)C(c1ccccc1)c1ccc(O)c(F)c1 (centres unmarked) What is its recorded Emax?
Result: 54

Ask: Consider the compound shown here: CC(C)Oc1ccc(-c2ccc(C(c3ccccc3)C(C)(C)C(=O)Nc3nncs3)cc2)cc1 (centres unmarked) What is its recorded Emax?
Result: 40.1

---

Molecular target: human full-length glucocorticoid receptor (Homo sapiens, UniProt P04150)
Construct: recombinantly expressed human full-length glucocorticoid receptor; purchased PanVera Co., Madison, Wis; P2816
Test: Glucocorticoid Receptor Binding Assay (II), fluorescence polarization competitor kit (Fluormone GS1)
Conditions: GR Binding Assay (II)
Threshold-based label: Ki under 100 nM gives TRUE, Ki not under 100 nM gives FALSE.

Illustrative cases are given below, each with its answer.
compound | target_or_test_system | cat
CC(=O)c1ccc(C(c2ccccc2)C(C)(C)C(=O)Nc2nccs2)cc1 (centres unmarked) [Example 368] | human full-length glucocorticoid receptor (Homo sapiens, UniProt P04150) | TRUE
CC(C)(C(=O)Nc1nncs1)C(c1ccc(F)cc1)c1ccc(N2CCOCC2)cc1 (centres unmarked) [Example 231] | human full-length glucocorticoid receptor (Homo sapiens, UniProt P04150) | TRUE

Kindly review the next compound as well.
Ask: Ki under 100 nM? Item: CC(O)c1ccc(C(c2ccccc2)C(C)(C)C(=O)Nc2nncs2)cc1 (centres unmarked) [Example 372]
Result: TRUE

---

Target: human glucocorticoid receptor (Homo sapiens, UniProt P04150)
Construct: purified human recombinant full-length glucocorticoid receptor; purchased Invitrogen Part #2893
Assay: Glucocorticoid Receptor Binding Assay (I), fluorescence polarization competitor kit (Fluormone GS Red)
Conditions: GR Binding Assay (I)
This listing pairs molecules with measured log10(Ki).
Response schema: value (number) is log10 of Ki in units of nM.

Ask: Consider the molecule shown here: CC(C)CC(c1ccc(-c2ccccc2)cc1)C(C)(C)C(=O)Nc1nncs1 (stereo not drawn) [Example 431] What is its recorded log10(Ki)?
Result: 1.72

---

Tested on: AP-1 induced transcriptional activity
Assay: Cellular Transrepressional Assay: AP-1 luciferase reporter in PMA-activated A549 cells
Type: cell-based
Conditions: Homo sapiens, A549, 7 h, maximum inhibition, Cellular Transrepression Assay; read-out: AP-1 Max % inh (Cellular Transrepression Assay)
This listing pairs compounds with measured Emax.
Please reply with the bare figure in % and do not write the unit itself.

Worked cases, Emax given:
compound | numeric_result
CC(C)(C(=O)Nc1nc(Cc2ccc(-c3ccncc3)cc2)cs1)C(c1ccccc1)c1ccc(Br)cc1 (stereo not shown) [Example 300] | 73.7
CC(C)CC(c1ccc(-c2ccc(OC(C)C)cc2)cc1)C(C)(C)C(=O)Nc1nccs1 (stereo not shown) [Example 400] | 46.1
CC(C)(C(=O)Nc1nncs1)C(c1ccccc1)c1ccc(N2CCOCC2)cc1 (stereo not shown) [Example 225] | 34.3

Then this compound:
Ask: Consider the compound shown here: CC(C)(C(=O)Nc1nccs1)C(c1ccccc1)c1ccc(O)cc1 (stereo not shown) [Example 209] What is its recorded Emax?
Result: 46.9

---

Target: human full-length glucocorticoid receptor (Homo sapiens)
Construct: recombinantly expressed human full-length glucocorticoid receptor; purchased PanVera Co., Madison, Wis; P2816
Test: Glucocorticoid Receptor Binding Assay (II), fluorescence polarization competitor kit (Fluormone GS1)
Conditions: GR Binding Assay (II)
endpoint_name: log10(Ki) (log10 of the value in nM)
Response schema: value (number) is log10 of Ki in units of nM.

Worked cases, log10(Ki) given:
compound | log10(Ki)
CC(C)(C(=O)Nc1nccs1)[C@@H](c1ccccc1)c1ccc(N2CCOCC2)cc1 (stereo in doubt) [Example 257] | 1.85
CC(C)(C(=O)Nc1nccs1)C(c1ccccc1)c1cccc(Br)c1 (stereo not shown) [Example 311] | 1.24
CC(C)(C(=O)Nc1nncs1)C(c1ccccc1)c1ccc(Br)cc1 (stereo not shown) [Example 318] | 1.11
COc1ccc([C@H](c2ccccc2)C(C)(C)C(=O)NC2CCC2)cc1 [Example 271] | 2.89
CC(C)(C(=O)N1CCOCC1)[C@@H](c1ccccc1)c1ccc(O)cc1 [Example 337] | 3.32

Ask: Consider the compound shown here: CC(C)(C(=O)Nc1nccs1)C(c1ccccc1)c1ccc(Nc2ccc(F)cc2)cc1 (stereo not shown) [Example 243] What is its recorded log10(Ki)?
Result: 1.46

Ask: Consider the compound shown here: CC(C)(C(=O)NC1CCC1)[C@H](c1ccccc1)c1ccc(O)cc1 [Example 334] What is its recorded log10(Ki)?
Result: 2.60

Ask: Consider the compound shown here: COc1ccc(C(c2ccc(OC)cc2)C(C)(C)C(=O)Nc2nccs2)cc1 [Example 69] What is its recorded log10(Ki)?
Result: 1.83

Ask: Consider the compound shown here: CC(C)(C(=O)NC1CCCC1)[C@H](c1ccccc1)c1ccc(O)cc1 [Example 336] What is its recorded log10(Ki)?
Result: 2.70

Ask: Consider the compound shown here: CC(C)(C(=O)Nc1nccs1)C(c1ccc(Cl)cc1)c1ccc(N2CCOCC2)cc1 (stereo not shown) [Example 232] What is its recorded log10(Ki)?
Result: 1.16

---

Molecular target: human full-length glucocorticoid receptor (Homo sapiens, UniProt P04150)
Construct: recombinantly expressed human full-length glucocorticoid receptor; purchased PanVera Co., Madison, Wis; P2816
Test: Glucocorticoid Receptor Binding Assay (II), fluorescence polarization competitor kit (Fluormone GS1)
Conditions: GR Binding Assay (II)
endpoint_name: Ki (nM)
Please reply with the bare figure in nM and do not write the unit itself.

Worked cases, Ki given:
compound | Ki / nM
CC(C)(C(=O)Nc1nncs1)C(c1ccccc1)c1cccc(N2CCOCC2)c1 (centres unmarked) | 2310
COc1ccc([C@H](c2ccccc2)C(C)(C)C(=O)Nc2nncs2)cc1Br | 14.7
CC(C)(C(=O)Nc1nncs1)C(c1ccc(N2CCOCC2)cc1)c1cccc(F)c1 (single isomer, unassigned) | 121
CC(C)(C)OC(=O)N1CCN(c2ccc(C(c3ccccc3)C(C)(C)C(=O)Nc3nccs3)cc2)CC1 (centres unmarked) | 324
CCOC(=O)c1csc(NC(=O)C(C)(C)[C@@H](c2ccccc2)c2ccc(O)cc2)n1 | 11.8
CC(=O)Oc1ccc([C@@H](c2ccccc2)C(C)(C)C(=O)Nc2nccs2)cc1 | 21.7
CC(C)(C(=O)Nc1nccs1)C(c1ccccc1)c1ccc(C#N)cc1 (centres unmarked) | 26.6
CC(C)(C(=O)Nc1nccs1)C(c1ccccc1)c1ccc(N2CCNCC2)cc1 (centres unmarked) | 348
Cc1cnc(NC(=O)C(C)(C)[C@@H](c2ccccc2)c2ccc(O)cc2)s1 | 18.8
COc1ccc([C@H](c2ccccc2)C(C)(C)C(=O)Nc2nc(C)cs2)cc1 | 193

Then this compound:
Ask: Consider the compound shown here: COc1ccc([C@H](c2ccccc2)C(C)(C)C(=O)Nc2ccncn2)cc1 What is its recorded Ki?
Result: 1850

---

Target: human full-length glucocorticoid receptor (Homo sapiens)
Construct: recombinantly expressed human full-length glucocorticoid receptor; purchased PanVera Co., Madison, Wis; P2816
Sequence (P04150 1-777): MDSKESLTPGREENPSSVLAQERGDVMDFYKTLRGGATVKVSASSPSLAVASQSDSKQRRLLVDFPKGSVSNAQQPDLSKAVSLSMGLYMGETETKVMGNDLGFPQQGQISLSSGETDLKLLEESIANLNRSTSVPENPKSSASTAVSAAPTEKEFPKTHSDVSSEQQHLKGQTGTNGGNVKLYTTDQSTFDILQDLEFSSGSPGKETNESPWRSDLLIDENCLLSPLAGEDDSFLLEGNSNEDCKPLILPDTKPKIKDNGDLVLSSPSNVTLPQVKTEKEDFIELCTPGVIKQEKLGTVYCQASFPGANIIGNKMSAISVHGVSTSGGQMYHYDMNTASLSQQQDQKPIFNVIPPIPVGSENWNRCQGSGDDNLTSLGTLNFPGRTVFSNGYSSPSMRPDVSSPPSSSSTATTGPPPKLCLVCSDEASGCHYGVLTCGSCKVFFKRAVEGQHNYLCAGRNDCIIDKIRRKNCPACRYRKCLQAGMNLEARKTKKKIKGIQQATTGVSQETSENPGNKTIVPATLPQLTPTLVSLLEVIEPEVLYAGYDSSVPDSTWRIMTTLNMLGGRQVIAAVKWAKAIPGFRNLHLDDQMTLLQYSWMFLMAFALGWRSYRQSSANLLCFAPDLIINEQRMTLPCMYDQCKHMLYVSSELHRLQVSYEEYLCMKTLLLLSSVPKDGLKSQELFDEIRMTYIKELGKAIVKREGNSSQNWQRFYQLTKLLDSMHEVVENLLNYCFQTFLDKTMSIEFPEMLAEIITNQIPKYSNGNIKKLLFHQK
Assay: Glucocorticoid Receptor Binding Assay (II), fluorescence polarization competitor kit (Fluormone GS1)
Conditions: GR Binding Assay (II)
endpoint_name: Ki (nM)
Please reply with the bare figure in nM and do not write the unit itself.

compound | Ki [nM]
CC(C)(C(=O)Nc1nncs1)C(c1ccccc1)c1cccc(Br)c1 (centres unmarked) | 19.9
CC(=O)c1cccc(C(c2ccccc2)C(C)(C)C(=O)Nc2nccs2)c1 (centres unmarked) | 60.9
CC(C)(C(=O)Nc1nncs1)C(c1ccc(Cl)cc1)c1ccc(N2CCOCC2)cc1 (centres unmarked) | 13.2

Then this compound:
Ask: Consider the compound shown here: COc1ccc([C@H](c2ccccc2)C(C)(C)C(=O)NC2CCCC2)cc1 What is its recorded Ki?
Result: 987
